- System: panel of breast cancer cell lines
- runDescription: Compound A with targeted agents and chemotherapies, 72-hour in vitro proliferation assays
- Format: cell-based
- statedConditions: HCC1143 cell line; compound A × partner; 72-hour proliferation
Task for the reader: assign each of the following molecules its reported Loewe Volume.

Which Loewe Volume value belongs to CC1(C)CCC(CN2CCN(c3ccc(C(=O)NS(=O)(=O)c4ccc(NCC5CCOCC5)c([N+](=O)[O-])c4)c(Oc4cnc5[nH]ccc5c4)c3)CC2)=C(c2ccc(Cl)cc2)C1 ? −1.50

Report Loewe Volume for each item below.
1. CCN1CCN(Cc2ccc(Nc3ncc(F)c(-c4cc(F)c5nc(C)n(C(C)C)c5c4)n3)nc2)CC1
2. Cn1ncnc1[C@H]1c2n[nH]c(=O)c3cc(F)cc(c23)N[C@@H]1c1ccc(F)cc1
3. N.N.O=C([O-])C1(C(=O)[O-])CCC1.[Pt+2]
4. N.N.[Cl][Pt][Cl] [Cisplatin]

1. 9.43
2. 1.38
3. −2.60
4. −3.31

Report Loewe Volume for each item below.
1. CC1(C)CCC(c2ccc(Cl)cc2)=C(CN2CCN(c3ccc(C(=O)NS(=O)(=O)c4ccc(N[C@H](CCN5CCOCC5)CSc5ccccc5)c(S(=O)(=O)C(F)(F)F)c4)cc3)CC2)C1
2. CC(=O)O[C@@]12CO[C@@H]1C[C@H](O)[C@@]1(C)C(=O)[C@H](O)C3=C(C)[C@@H](OC(=O)[C@H](O)[C@@H](NC(=O)OC(C)(C)C)c4ccccc4)C[C@@](O)([C@@H](OC(=O)c4ccccc4)[C@H]21)C3(C)C
3. Cc1c(-c2ccc(N3CCc4cccc(C(=O)Nc5nc6ccccc6s5)c4C3)nc2C(=O)O)cnn1CC12CC3CC(CC(C3)C1)C2

[27.51, 8.32, 52.79]

These entries and their values trace back to patent US11931424B2.
